Please go through the items and note down their composite z-score.
test: probe aNOTCH3 binding on compound microarray – biochemical, small-molecule microarray, 635/667 nm fluorescence, primary screen (AID 1120); details: higher = more signal;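 further: probe is a biotin-tagged antibody raised against NOTCH3 rather than NOTCH3 protein; score merges spot fluorescence near 667 nm with spot signal to noise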
The response must contain the number and no unit.

composite z-score recorded for this compound, C[C@H]1NC(=O)C([C@@H](C)OCc2ccccc2)NC(=O)[C@@]23C(=O)N[C@@H](Cc4ccccc4)C2[C@H](C)[C@@]2(C)O[C@H]2C3/C=C/CC/C=C/CNC1=O (some centres undefined) , is -0.0647

C=CC[C@]1(C(=O)N2CCOCC2)N=C(c2ccc(OCCCO)cc2)O[C@H]1c1ccccc1CN=[N+]=[N-] has a reported composite z-score of 0.533

The recorded composite z-score for entry CN1C(=O)C2C=CC(C(O)c3cccc4ccccc34)N(NC(=O)OC(C)(C)C)C2C1=O (centres undefined) equals 0.479

For COCCOC(=O)N1C(=O)[C@@]2(c3cc(C#CCNC(N)=O)ccc31)[C@H](c1ccc(OCCO)cc1)N1[C@H](c3ccccc3)[C@H](c3ccccc3)OC(=O)[C@H]1[C@@H]2C(=O)N1CCN(c2ncccn2)CC1 the compound record lists composite z-score as 0.31
